meta.source: PubChem BioAssay

# Tested on: Plasmodium falciparum Sir2 (PF13_0152, Sir2A)
# assay_summary: Plasmodium falciparum Sir2A binding compounds – biochemical, small-molecule microarray, 635 nm fluorescence, primary screen (AID 1098);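 also: score merges spot fluorescence intensity with its signal-to-noise ratio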
# test_context: fluorescence 635 nm, higher = more signal
I'd appreciate it if you could supply composite z-score values for the items below.
Number only, please.

Qu. May I ask what composite z-score has been recorded for `O=C1[C@H]2C=C(Br)[C@H](C[C@@H]2OCCOCCO)[C@@]12CO2` ?
Ans. 0.146

Qu. May I ask what composite z-score has been recorded for C=CCC(OC(C)=O)[C@@H]1[C@@H](N(Cc2ccc(-c3ccccc3)cc2)C(=O)c2ccc(C)cc2)c2cc(OCCCO)ccc2N1C(=O)Cc1ccc(OC)cc1 (stereo not given in full) ?
Ans. 1.36

Qu. May I ask what composite z-score has been recorded for Cc1ccc(C(C)CC(O)C2C=CC3C(=O)NC(=O)C3N2Nc2ccccn2)o1 (stereo not given) ?
Ans. 1.22

Qu. May I ask what composite z-score has been recorded for `C=C(/C(=C/C[C@@H](OC(C)=O)c1ccc(CO)o1)c1cnc2ccccc2c1)C(C)C` ?
Ans. 1.18

Qu. May I ask what composite z-score has been recorded for `COc1ccc([Si](C)(C)[C@@H]2[C@@H](CC(=O)N3Cc4ccccc4C[C@H]3CO)O[C@]3(C(=O)N(Cc4cccc(N5C(=O)COc6ccccc65)c4)c4ccccc43)[C@H]2C)cc1` ?
Ans. 0.321

Qu. May I ask what composite z-score has been recorded for `COc1ccc(C(=O)Nc2cccc(CN3C(=O)[C@@]4(O[C@@H](CC(=O)N5Cc6ccccc6C[C@H]5CO)[C@H]([Si](C)(C)c5ccc(OC)cc5)[C@H]4C)c4ccccc43)c2)cc1` ?
Ans. 1.42

Qu. May I ask what composite z-score has been recorded for `O=C1O[C@H](c2ccccc2)[C@H](c2ccccc2)N2[C@H]1[C@@H](C(=O)Nc1nc3ccccc3s1)[C@]1(C(=O)Nc3ccc(C#CC4=CCCCC4)cc31)[C@H]2c1ccc(OCCO)cc1` ?
Ans. 0.956

Qu. May I ask what composite z-score has been recorded for `CC(C)[C@H]1COC(=O)N1C(=O)[C@H]1[C@@H](c2ccccc2)N(c2ccccc2)O[C@@H]1C` ?
Ans. 0.22

Qu. May I ask what composite z-score has been recorded for COc1cc(NN2C(C(O)c3ccccc3)C=CC3C(=O)N(c4ccccc4)C(=O)C32)cc(OC)c1OC (stereo not given) ?
Ans. 1.53

Qu. May I ask what composite z-score has been recorded for `CN(C)CCCCCCNC(=O)[C@@H]1C[C@@H]2C(=O)NCC(=O)N2[C@@H]1c1cccc(OCCO)c1` ?
Ans. 1.39

Qu. May I ask what composite z-score has been recorded for CN1C(=O)C2C=CC(C(O)C3=C[C@H]4C[C@@H](C3)C4(C)C)N(Nc3ccc([N+](=O)[O-])cc3[N+](=O)[O-])C2C1=O (stereo not given in full) ?
Ans. 1.22

Qu. May I ask what composite z-score has been recorded for `CO[C@H]1O[C@H](CO)[C@@H](OC(=O)Nc2ccc(C(F)(F)F)cc2)[C@H](OC(=O)Nc2ccccc2)[C@@H]1OC(=O)Nc1ccccc1` ?
Ans. 1.02

Qu. May I ask what composite z-score has been recorded for `CCCCCCC#C[Si](O[C@H](c1ccccc1)c1cn([C@H](C)c2ccccc2)nn1)(C(C)C)C(C)C` ?
Ans. 0.693

Qu. May I ask what composite z-score has been recorded for `CC(C)NC(=O)[C@@H]1c2ccccc2C(=O)N(C2CCCCC2)[C@H]1c1ccc(CO)cc1` ?
Ans. 0.576

Qu. May I ask what composite z-score has been recorded for `C=C(C(=O)CC[C@H](OC(=O)c1cccnc1)c1ccccc1OCCO)C(C)C` ?
Ans. 1.14
